Source of measurements: ChEMBL document CHEMBL1201862

System: SNB-19
Assay: NCI tumour cell line growth inhibition, 48 h
The source made the active and inactive calls. No stated cut-off is given here; in the data, active = GI50 up to about 1.1 µM and inactive = higher. *1 amine or outer side, *2 acyl side, *3 side chain or, on linkers, in order; H or OH if unused. Where a SMILES comes first, the peptide text is derived from it. Bridges are numbered along the chain shown (N, C = ends). [ ]: non-standard residue; d: D form. The star is where a group is joined. X56 = CC(C)C(C)C(C(=O)[*:2])N(C)[*:1]; Picolinoyl(3-OH) = O=C(c1ncccc1O)*; NMePhg = CN[CH](C(=O)O)c1ccccc1; Hyp = O=C(O)[CH]1C[CH](O)CN1; Sar = CNCC(=O)O
Each entry below lists one item and its recorded GI50 value.

// below: answered molecules
molecule	GI50
COC(=O)CCC(NC(=S)N/N=C(\C)c1cnc2ccccc2n1)C(=O)OC (centres undefined)	> 100 µM (inactive)
C/C(=C1\C(=O)C(c2ccccc2)N(c2ccccc2)C1=O)c1ccc(Cl)cc1 (centres undefined)	17.4 µM (inactive)
NNC(=O)/C(NC(=O)c1ccccc1)=C(\N)c1cccc([N+](=O)[O-])c1	> 100 µM (inactive)
C[Si](C)(OCCS(=O)(=O)O)C1S(=O)(=O)OCCOS1(=O)=O	36.8 µM (inactive)
CN/N=C(/Cc1occc(=O)c1O)C(=O)Nc1ccccc1C	> 100 µM (inactive)
O=C(c1ccc(Cl)cc1)N(C(=S)OCc1ccccn1)c1ccccc1	> 100 µM (inactive)

Data request: # return GI50 of `C(=N\c1ccc(-c2cc(-c3ccccc3)nc3ccc4ccccc4c23)cc1)/c1ccccc1` (system: SNB-19)
Data returned: 18.5 µM (inactive)

Data request: # return GI50 of `Nc1ccc(C2=N/C(=C\c3cccc(N)c3)C(=O)O2)cc1` (system: SNB-19)
Data returned: > 100 µM (inactive)

Data request: # return GI50 of CCOP(=O)(OCC)C(C(=O)OC)C(=O)C(=O)Nc1c(C)cc(Br)cc1C (centres undefined) (system: SNB-19)
Data returned: > 100 µM (inactive)

Data request: # return GI50 of CC(C)CC1NC(=O)C(NC(=O)c2ncccc2O)C(C)OC(=O)C(c2ccccc2)N(C)C(=O)C(C)NC(=O)C(C(C)C(C)C)N(C)C(=O)CN(C)C(=O)C2CC(O)CN2C1=O (centres undefined) ({Picolinoyl(3-OH)}-TL[Hyp][Sar][X56]A[NMePhg]; ester 1-C; configuration not given here) (system: SNB-19)
Data returned: 115 µM (inactive)

Data request: # return GI50 of O=C(N/N=C1\C(=O)N(c2nccs2)C(=O)C(=O)C1c1nc2ccccc2s1)c1ccccc1O (centres undefined) (system: SNB-19)
Data returned: 60 µM (inactive)

Data request: # return GI50 of `Cc1cn2c(=O)c3ccccc3nc2s1` (system: SNB-19)
Data returned: > 100 µM (inactive)

Data request: # return GI50 of CC(=O)C1C(=O)C(=O)N(c2ccc(Cl)c(Cl)c2)C1=O (centres undefined) (system: SNB-19)
Data returned: > 100 µM (inactive)

Data request: # return GI50 of `COc1ccc(CCn2cnc3ccccc32)cc1` (system: SNB-19)
Data returned: > 100 µM (inactive)
